test system: FDC-P1, normal mouse myelogeous stem cells; conditions: 24 h
Entries annotated with measured Myelo
readout_label: Myelo

{"compound": "COc1c(C)cc2c(c1O)[C@@H]1C3[C@@H]4SC[C@]5(NC(C)Cc6c5[nH]c5ccc(F)cc65)C(=O)COC[C@@H](c5c6c(c(C)c(OC(C)=O)c54)OCO6)N3[C@@H](O)[C@H](C2)N1C (some centres unmarked) [Compound 42]", "target_under_test": "FDC-P1, normal mouse myelogeous stem cells", "recorded_measurement": "6.41E−08"}
{"compound": "COc1c(C)cc2c(c1O)[C@@H]1C3[C@@H]4SC[C@]5(NCCc6c5[nH]c5cc(F)ccc65)C(=O)COC[C@@H](c5c6c(c(C)c(OC(C)=O)c54)OCO6)N3[C@@H](O)[C@H](C2)N1C (some centres unmarked)", "target_under_test": "FDC-P1, normal mouse myelogeous stem cells", "recorded_measurement": "5.25E−07"}
{"compound": "COc1c(C)cc2c(c1O)[C@@H]1C3[C@@H]4SC[C@]5(NCCc6c5[nH]c5c(OCc7ccccc7)cccc65)C(=O)COC[C@@H](c5c6c(c(C)c(OC(C)=O)c54)OCO6)N3[C@@H](O)[C@H](C2)N1C (some centres unmarked)", "target_under_test": "FDC-P1, normal mouse myelogeous stem cells", "recorded_measurement": "2.00E−07"}
{"compound": "COc1c(C)cc2c(c1O)[C@@H]1C3[C@@H]4SC[C@]5(NCCc6c5[nH]c5c(C)cccc65)C(=O)COC[C@@H](c5c6c(c(C)c(OC(C)=O)c54)OCO6)N3[C@@H](O)[C@H](C2)N1C (some centres unmarked)", "target_under_test": "FDC-P1, normal mouse myelogeous stem cells", "recorded_measurement": "2.05E−07"}
{"compound": "COc1ccc2c3c([nH]c2c1)[C@@]1(CS[C@@H]2c4c(OC(C)=O)c(C)c5c(c4[C@H](COCC1=O)N1C2[C@H]2c4c(cc(C)c(OC)c4O)C[C@@H]([C@@H]1O)N2C)OCO5)NCC3 (some centres unmarked)", "target_under_test": "FDC-P1, normal mouse myelogeous stem cells", "recorded_measurement": "1.15E−05"}

* * *

system: H-MEC-1; test: Inhibition of cells growth by colorimetric assay (SRB), H-MEC-1; assay type: cell-based; settings: Homo sapiens, HMEC-1; H-MEC-1, 48 hours exposure, SRB; read-out: LC50 (the source's name)
Entries annotated with measured CC50

{"molecule": "COc1c(C)cc2c(c1O)[C@@H]1C3[C@@H]4SC[C@]5(NCCc6c5[nH]c5ccccc65)C(=O)COC[C@@H](c5c6c(c(C)c(OC(=O)C(F)(F)F)c54)OCO6)N3[C@@H](C#N)[C@H](C2)N1C (stereo partly drawn)", "target_under_test": "H-MEC-1", "CC50 [µM]": 0.378}
{"molecule": "CCCCCCCC(=O)Oc1c(C)c2c(c3c1[C@H]1SC[C@]4(NCCc5c4[nH]c4ccccc54)C(=O)COC[C@@H]3N3C1[C@H]1c4c(cc(C)c(OC)c4O)C[C@@H]([C@@H]3C#N)N1C)OCO2 (stereo partly drawn)", "target_under_test": "H-MEC-1", "CC50 [µM]": 3.4}
{"molecule": "COc1c(C)cc2c(c1OC(C)(C)C)[C@@H]1C3[C@@H]4SC[C@]5(NCCc6c5[nH]c5ccccc65)C(=O)COC[C@@H](c5c6c(c(C)c(OC(=O)OC(C)(C)C)c54)OCO6)N3[C@@H](O)[C@H](C2)N1C (stereo partly drawn)", "target_under_test": "H-MEC-1", "CC50 [µM]": 11}

* * *

Test system: PANC-1
Experiment: cells
Type: cell-based
Conditions: read-out: LC50; PANC-1, 48 hours exposure, SRB
Text: The finality of these assays is to interrupt the growth of a “in vitro” tumor cell culture by means of a continued exhibition of the cells to the sample to be testing. A colorimetric type of assay, using sulphorhodamine B (SRB) reaction has been adapted for a quantitative measurement of cell growth and viability [following the technique described by Philip Skehan, et al. (1990), New colorimetric cytotoxicity assay for anticancer drug screening, J. Natl. Cancer Inst., 82:1107-1112] […]
readout_label: CC50 (nM)

{"molecule": "COc1c(C)cc2c(c1O)[C@@H]1C3[C@@H]4SC[C@]5(C(=O)COC[C@@H](c6c7c(c(C)c(OC(C)=O)c64)OCO7)N3[C@@H](O)[C@H](C2)N1C)c1[nH]c2ccccc2c1CCN5C (stereo partly drawn) [Compound 39]", "readout_label": "CC50", "recorded_measurement": 13000}
{"molecule": "COc1c(C)cc2c(c1O)[C@@H]1C3[C@@H]4SC[C@]5(NC(C)Cc6c5[nH]c5ccc(O)cc65)C(=O)COC[C@@H](c5c6c(c(C)c(OC(C)=O)c54)OCO6)N3[C@@H](O)[C@H](C2)N1C (stereo partly drawn) [Compound 38]", "readout_label": "CC50", "recorded_measurement": 428}
{"molecule": "COc1c(C)cc2c(c1O)[C@@H]1C3[C@@H]4SC[C@]5(NC(C)Cc6c5[nH]c5ccc(F)cc65)C(=O)COC[C@@H](c5c6c(c(C)c(OC(C)=O)c54)OCO6)N3[C@@H](O)[C@H](C2)N1C (stereo partly drawn) [Compound 41]", "readout_label": "CC50", "recorded_measurement": 506}

* * *

tested on: SK-BR3; assay: cells; type: cell-based; conditions: read-out: LC50; SK-BR3, 48 hours exposure, SRB

{"compound": "COc1c(C)cc2c(c1O)[C@@H]1C3[C@@H]4SC[C@]5(C(=O)COC[C@@H](c6c7c(c(C)c(OC(C)=O)c64)OCO7)N3[C@@H](O)[C@H](C2)N1C)c1[nH]c2ccccc2c1CCN5C (stereo partly drawn) [Compound 39]", "CC50": "944 nM"}
{"compound": "COc1c(C)cc2c(c1O)[C@@H]1C3[C@@H]4SC[C@]5(C(=O)COC[C@@H](c6c7c(c(C)c(OC(C)=O)c64)OCO7)N3[C@@H](O)[C@H](C2)N1C)c1[nH]c2ccccc2c1CCN5C (stereo partly drawn) [Compound 40]", "CC50": "28 nM"}
{"compound": "COc1c(C)cc2c(c1O)[C@@H]1C3[C@@H]4SC[C@]5(NC(C)Cc6c5[nH]c5ccc(F)cc65)C(=O)COC[C@@H](c5c6c(c(C)c(OC(C)=O)c54)OCO6)N3[C@@H](O)[C@H](C2)N1C (stereo partly drawn) [Compound 41]", "CC50": "36.3 nM"}
{"compound": "COc1c(C)cc2c(c1O)[C@@H]1C3[C@@H]4SC[C@]5(NC(C)Cc6c5[nH]c5ccc(O)cc65)C(=O)COC[C@@H](c5c6c(c(C)c(OC(C)=O)c54)OCO6)N3[C@@H](O)[C@H](C2)N1C (stereo partly drawn) [Compound 38]", "CC50": "9.54 nM"}
{"compound": "COc1c(C)cc2c(c1O)[C@@H]1C3[C@@H]4SC[C@]5(NC(C)Cc6c5[nH]c5ccc(F)cc65)C(=O)COC[C@@H](c5c6c(c(C)c(OC(C)=O)c54)OCO6)N3[C@@H](O)[C@H](C2)N1C (stereo partly drawn) [Compound 42]", "CC50": "87.3 nM"}
{"compound": "COc1c(C)cc2c(c1O)[C@@H]1C3[C@@H]4SC[C@]5(NC(C)Cc6c5[nH]c5ccc(O)cc65)C(=O)COC[C@@H](c5c6c(c(C)c(OC(C)=O)c54)OCO6)N3[C@@H](O)[C@H](C2)N1C (stereo partly drawn) [Compound 37]", "CC50": "141 nM"}

* * *

assay: physchem; settings: pH 7.4, aqueous buffer, Solubility Dulbecco's PBS pH 7.4
readout_label: solubility (µM)

{"molecule": "COc1ccc2[nH]c3c(c2c1)CCN[C@]31CS[C@@H]2c3c(OC(C)=O)c(C)c4c(c3[C@H](COCC1=O)N1C2[C@H]2c3c(cc(C)c(OC)c3O)C[C@@H]([C@@H]1O)N2C)OCO4 (stereo partly drawn)", "readout_label": "solubility", "value_modifier": "=", "recorded_measurement": 2.99}
{"molecule": "C=COC(=O)Oc1c(OC)c(C)cc2c1[C@@H]1C3[C@@H]4SC[C@]5(NCCc6c5[nH]c5ccccc65)C(=O)COC[C@@H](c5c6c(c(C)c(OC(C)=O)c54)OCO6)N3[C@@H](O)[C@H](C2)N1C (stereo partly drawn)", "readout_label": "solubility", "value_modifier": "<", "recorded_measurement": 1}
{"molecule": "COc1ccc2c3c([nH]c2c1)[C@@]1(CS[C@@H]2c4c(OC(C)=O)c(C)c5c(c4[C@H](COCC1=O)N1C2[C@H]2c4c(cc(C)c(OC)c4O)C[C@@H]([C@@H]1O)N2C)OCO5)NCC3 (stereo partly drawn)", "readout_label": "solubility", "value_modifier": "=", "recorded_measurement": 17.6}
